// reported solubility (mole fraction) for each item listed
- condition summary: in 2-ethoxyethanol, 313.16 K
Keep it simple and answer with nothing but the number.

// solved cases for solubility (mole fraction) follow
molecular string: O=P(O)(CO)c1ccccc1
solubility (mole fraction): 0.0709
//
molecular string: COc1ccc(P(c2ccc(OC)cc2)c2ccc(OC)cc2)cc1
solubility (mole fraction): 0.0136

What solubility (mole fraction) value was documented for this molecule, COc1ccc(P(=O)(c2ccc(OC)cc2)c2ccc(OC)cc2)cc1 ?
0.0143

Record: O=C(O)CCP(=O)(O)c1ccccc1
0.0709

* * *

- condition summary: in 2-ethoxyethanol, 298.17 K
Entries and their solubility (mole fraction)

Here's what some known entries look like.
molecular string: COc1ccc(P(c2ccc(OC)cc2)c2ccc(OC)cc2)cc1
solubility (mole fraction): 0.00693

molecular string: O=C(O)CCP(=O)(O)c1ccccc1
solubility (mole fraction): 0.0512

molecular string: O=P(O)(CO)c1ccccc1
solubility (mole fraction): 0.0512

Returns the measured solubility (mole fraction) for the input molecule. Input: COc1ccc(P(=O)(c2ccc(OC)cc2)c2ccc(OC)cc2)cc1
0.00716
